# Test system: SN12C renal
# PROCEDURE_SUMMARY: NCI-60 one-dose screen, 48 h (100 = growth as untreated, 0 = no growth, -100 = all killed)
# ASSAY_CONDITIONS: 10 µM unless noted
Compounds without any hit were thinned out: in the full panel of roughly 83,000, 20% have a hit.
growth listing for selected compounds.
QUANTITY_NAME: growth (%)

* O=C(C[P+](c1ccccc1)(c1ccccc1)c1ccccc1)c1ccccc1 | 87.9
* COc1cc(-c2ccc(-[n+]3nc(-c4ccc([N+](=O)[O-])cc4)nn3-c3ccc([N+](=O)[O-])cc3)c(OC)c2)ccc1-[n+]1nc(-c2ccc([N+](=O)[O-])cc2)nn1-c1ccc([N+](=O)[O-])cc1 | 2.95
* CCOC(=O)C1=NN(c2ccccc2)C(=O)/C1=C\N1C(=O)/C(=C/c2cccc(O)c2)SC1=S | 82.3
* O=[N+]([O-])c1ccc(C(Br)c2ccc([N+](=O)[O-])cc2)cc1 | 54.9
* CCOC(=O)c1[nH]c(C#N)c(C(=O)OCC)c1C | 92.5
* CCCCN(CCCC)CCCCCCCCCCO | 107
* O=C1C(=O)c2cccnc2-c2ncccc21 | -14.3
* CC12CCC(O)CC1=CCC1C2CCC2(C)C3=NN=CC3CC12 (stereo not given) | 105
* S=C1SCN(Cc2cccs2)CN1Cc1cccs1 | 98.7
* O=C(O)c1ccc2c(c1)C(=O)c1ccccc1C2=O | 94.6

---

# System: SF-295 CNS
# PROCEDURE_SUMMARY: NCI-60 one-dose screen, 48 h (100 = growth as untreated, 0 = no growth, -100 = all killed)
# ASSAY_CONDITIONS: 10 µM unless noted
The panel holds about 83,000 compounds, 20% with a hit somewhere; the sample as a whole holds those more often. Activity calls are given as the source filed them. The calls were made as follows: active = growth percent below 10; inactive = the rest.
QUANTITY_NAME: growth

- CCCC[n+]1c(/C=C\c2c(OC)cc(OC)cc2OC)ccc2ccccc21: -74.7% (active)
- Cc1cc2cccnc2c2ncccc12: 28.5% (inactive)
- [Cl-].[Rh+3].c1ccc(-c2ccnc3c2ccc2c(-c4ccccc4)ccnc23)cc1.c1ccc(-c2ccnc3c2ccc2c(-c4ccccc4)ccnc23)cc1.c1ccc(-c2ccnc3c2ccc2c(-c4ccccc4)ccnc23)cc1: 69.5% (inactive)
- O=[N+]([O-])CC(O)c1ccccc1 (centres undefined): 113% (inactive)
- OC(CSc1ccccc1)CN1CCN(c2ccc(Cl)cc2)CC1 (centres undefined): 94.3% (inactive)
- COc1cc2c(c(OC)c1OC)-c1ccc(NCc3ccccc3)c(=O)cc1[C@@H](NC(C)=O)CC2: -36.2% (active)
- CCOC(=O)C1=C(C(=O)c2ccccc2)C(c2cccc([N+](=O)[O-])c2)C(C(=O)c2ccccc2)=C(C(=O)OCC)N1: 90.2% (inactive)
- Oc1ccc2c(c1)CCc1ccccc1-2: 96.3% (inactive)
- c1ccc2sc(SSN3CC4CCC(CC4)C3)nc2c1: 108% (inactive)
- CN(C)c1ccc(/C=C/c2sc3ccc4ccccc4c3[n+]2C)cc1: -35.4% (active)
- CCC(C)C(N)C(=O)NC(CC(N)=O)C(=O)NC(CC(C)C)C(=O)NC(CCCCN)C(=O)NC(C)C(=O)NC(CC(C)C)C(=O)NC(C)C(=O)NC(C)C(=O)NC(CC(C)C)C(=O)NC(C)C(=O)NC(CCCCN)C(=O)NC(CCCCN)C(=O)NC(C(=O)NC(CC(C)C)C(N)=O)C(C)CC (centres undefined): 106% (inactive)
- CCCCCCCCCCCC(=O)OC(C)C(=O)NCCCC (centres undefined): 102% (inactive)
- O=C(c1ccccc1)c1ccc(O)c2ncccc12: 74.6% (inactive)
- O=C1C(=O)c2cc([N+](=O)[O-])ccc2-c2ccccc21: -82.2% (active)
- Cc1cc(C)c(C#N)c(Sc2nc(C)c([N+](=O)[O-])c(C)c2C#N)n1: 84.1% (inactive)
- COC1CC(C)C(OC)c2cc(O)cc(c2O)NC(=O)/C(C)=C/C=C\C(C)C(OC(N)=O)/C(C)=C\C(C)C1OC (centres undefined): -15.9% (active)
- Oc1ccc2ccccc2c1N=Nc1nccs1: 31.4% (inactive)
- CC/C(=C(/CC)c1ccc(O)cc1)c1ccc(O)cc1: 43.9% (inactive)
- Cc1cc(C)c([I+]c2c(C)cc(C)cc2C)c(C)c1: -33.7% (active)

---

# System: HOP-62 NSCLC
# PROCEDURE_SUMMARY: NCI-60 one-dose screen, 48 h (100 = growth as untreated, 0 = no growth, -100 = all killed)
# ASSAY_CONDITIONS: 10 µM unless noted
Compounds without any hit were thinned out: in the full panel of roughly 83,000, 20% have a hit.
Everything with growth lower than 90% is Condition not met; everything else, including exactly 90%, is Condition met.

- Cc1onc(-c2ccccc2)c1C(=O)N/N=C/c1cc(Cl)cc(Cl)c1O: Condition not met
- CCC[CH2][Sn]1([CH2]CCC)[O]C2C(CO)OC(n3ccc(N)nc3=O)C2[O]1 (stereo unspecified): Condition not met
- O=[N+]([O-])c1ccc(C2N(Cc3ccc(Cl)cc3)CCN2Cc2ccc(Cl)cc2)cc1: Condition met
- O=C1C=CC(=O)N1c1cc(Cl)c(Cl)cc1Cl: Condition met
- Nc1nc2ncc(CNc3ccc(C(=O)NC(CCC(=O)NC(CCC(=O)NC(CCC(=O)NC(CCC(=O)NC(CCC(=O)O)C(=O)O)C(=O)O)C(=O)O)C(=O)O)C(=O)O)cc3)nc2c(=O)[nH]1 (stereo unspecified): Condition met
- Oc1ccc2ccccc2c1N=Nc1ccccn1: Condition not met
- Clc1ccccc1C(c1ccccc1)(c1ccccc1)n1ccnc1: Condition not met
- N#CC1c2ccccc2C=CN1C(=O)CCCl (stereo unspecified): Condition met

---

# Tested on: DU-145 prostate
# PROCEDURE_SUMMARY: NCI-60 one-dose screen, 48 h (100 = growth as untreated, 0 = no growth, -100 = all killed)
# ASSAY_CONDITIONS: 10 µM unless noted
The panel holds about 83,000 compounds, 20% with a hit somewhere; the sample as a whole holds those more often.
growth listing for selected compounds.
QUANTITY_NAME: growth (%)

- OC(CSc1ccccc1)CN1CCN(c2ccc(Cl)cc2)CC1 (stereo unspecified): 110
- OC(c1cc(C23CC4CC(CC(C4)C2)C3)nc2c(Cl)cc(Cl)cc12)C1CCCCN1 (stereo unspecified): -93.6
- NC(=S)N/N=C\c1nccc2c(C(F)(F)F)cccc12: 12
- CC12CCC(O)CC1=CCC1C2CCC2(C)C3=NN=CC3CC12 (stereo unspecified): 122
- COc1ccc(NC(=O)/C(=C/N2C(=O)/C(=C/c3ccc(OC)c(OC)c3)NC2=S)C(C)=O)cc1: 96.4
- Cn1c(-c2ccccc2)c(/C=C/C2=[N+](C)c3ccccc3C2(C)C)c2ccccc21: 20.2
- COc1cc(NC(=O)C2=C(C)NC(C)=C(C(=O)Nc3cc(OC)c(Cl)cc3OC)C2c2cccc([N+](=O)[O-])c2)c(OC)cc1Cl: 58.4
- OC(Cc1cc(CC(O)(C(F)(F)F)C(F)(F)F)nc(CC(O)(C(F)(F)F)C(F)(F)F)c1)(C(F)(F)F)C(F)(F)F: 24.9
- O=S(=O)(O)c1cnccn1: 110
- CCSc1nc2ccccc2o1: 111
- Cc1ccc(NC2=CC(=O)C(=O)c3ccccc32)cc1: -65.1

---

# Tested on: MALME-3M melanoma
# PROCEDURE_SUMMARY: NCI-60 one-dose screen, 48 h
# ASSAY_CONDITIONS: 10 µM unless noted
This is part of a sample that, as a whole, favours compounds with a hit. Of some 83,000 tested, about 20% had one in any assay. Active and inactive are the calls of the source. How the source made its calls: active means growth percent below 10; inactive means the rest. *1 amine or outer side, *2 acyl side, *3 side chain or, on linkers, in order; H or OH if unused. Where a SMILES comes first, the peptide text is derived from it. Bridges are numbered along the chain shown (N, C = ends). Roman numbers before positions name the chains, in order. [ ]: non-standard residue; d: D form. Actinocin(1to9) = Cc1c2oc3c(C)ccc(C(=O)[*:2])c3nc-2c(C(=O)[*:1])c(N)c1=O; NMeV = CN[CH](C(=O)O)C(C)C; Sar = CNCC(=O)O
Outcomes: label 1 = active, label 0 = inactive

• CN(C)c1ccc(/C=C/c2sc3ccc4ccccc4c3[n+]2C)cc1 = label 1
• O=C(CCl)N(c1ccccc1)c1ccccc1 = label 0
• O=C(c1ccccc1)C(O)C(Br)(CBr)c1ccccc1 (stereo not drawn) = label 0
• Cc1oc2c(C)c3oc(=O)cc(C)c3cc2c1CCl = label 0
• CCCCCCCCCCCCN1C(C)=CS/C1=C\C=C\c1scc(C)[n+]1CCCCCCCCCCCC = label 0
• CC(C)(C)c1ccc(CCO)cc1 = label 0
• COc1cc(NC(=O)C2=C(C)NC(C)=C(C(=O)Nc3cc(OC)c(Cl)cc3OC)C2c2cccc([N+](=O)[O-])c2)c(OC)cc1Cl = label 0
• CC1(C)N=c2cc3c(cc2N1c1ccc(Cl)cc1)=Nc1ccccc1N3c1ccc(Cl)cc1 = label 0
• COc1cc(/C=C/c2ccnc3ccccc23)cc(OC)c1OC = label 0
• N#CC1c2ccccc2C=CN1C(=O)CCCl (stereo not drawn) = label 1
• CC(C)(C)CC(C)(C)c1ccc(OCCOCCSC(=N)N)cc1 = label 1
• O=C1C=CC(=O)N1c1cccc2c1CCCC2 = label 0
• C/C(=N\NC(=S)N1CC2CCC(CC2)C1)c1ccccn1 = label 1
• COc1cc(/C=C/C(=O)CC(=O)/C=C/c2ccc(O)c(OC)c2)ccc1O = label 0
• O=C(c1ccccc1)c1cc2ccccc2oc1=O = label 0
• CC[n+]1ccc(Nc2ccc(NC(=O)c3ccc(Nc4cc[n+](CC)c5ccc([N+](=O)[O-])cc45)cc3)cc2)cc1 = label 0
• CCC(C)C1NC(=O)C(NC(=O)c2c3nc4c(C(=O)NC5C(=O)NC(C(C)CC)C(=O)N6CCCC6C(=O)N(C)CC(=O)N(C)C(C(C)C)C(=O)OC5C)ccc(C)c4oc-3c(C)c(=O)c2N)C(C)OC(=O)C(C(C)C)N(C)C(=O)CN(C)C(=O)C2CCCN2C1=O (stereo not drawn) (I: TIP[Sar][NMeV] / II: TIP[Sar][NMeV]; ester I:1-I:C, II:1-II:C; linker I:N-II:N via Actinocin(1to9); configuration not given here) = label 1
• O=[N+]([O-])c1ccc(C2N(Cc3ccc(Cl)cc3)CCN2Cc2ccc(Cl)cc2)cc1 = label 0
